# measured.on: Human PDE7B (Homo sapiens, UniProt Q9NP56)
# Sequence (Q9NP56 whole entry): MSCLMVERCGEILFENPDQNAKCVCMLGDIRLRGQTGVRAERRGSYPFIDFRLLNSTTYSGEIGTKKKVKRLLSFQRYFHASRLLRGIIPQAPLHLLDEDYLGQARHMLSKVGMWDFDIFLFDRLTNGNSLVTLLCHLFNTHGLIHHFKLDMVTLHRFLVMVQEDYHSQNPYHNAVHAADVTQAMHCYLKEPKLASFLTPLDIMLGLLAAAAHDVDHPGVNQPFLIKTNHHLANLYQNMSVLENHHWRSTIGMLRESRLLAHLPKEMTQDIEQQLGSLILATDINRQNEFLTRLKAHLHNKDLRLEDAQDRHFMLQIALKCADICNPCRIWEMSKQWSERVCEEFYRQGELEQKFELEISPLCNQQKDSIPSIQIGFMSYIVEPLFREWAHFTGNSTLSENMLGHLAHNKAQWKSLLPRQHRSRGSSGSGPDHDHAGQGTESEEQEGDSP
experimental.endpoint: pIC50
Hey, just a heads up that pIC50 is the negative log base 10 of the concentration in molar.

Asked: Human PDE7B (Homo sapiens, UniProt Q9NP56) / pIC50 / CCOc1cc(C)nc(N(CCOC)S(=O)(=O)c2ccc(NCc3c(F)cncc3F)nc2OC)n1 : value?
Given back: 5.20

---

# measured.on: Cav1.2 (Homo sapiens, UniProt Q13936)
# Sequence (Q13936 whole entry): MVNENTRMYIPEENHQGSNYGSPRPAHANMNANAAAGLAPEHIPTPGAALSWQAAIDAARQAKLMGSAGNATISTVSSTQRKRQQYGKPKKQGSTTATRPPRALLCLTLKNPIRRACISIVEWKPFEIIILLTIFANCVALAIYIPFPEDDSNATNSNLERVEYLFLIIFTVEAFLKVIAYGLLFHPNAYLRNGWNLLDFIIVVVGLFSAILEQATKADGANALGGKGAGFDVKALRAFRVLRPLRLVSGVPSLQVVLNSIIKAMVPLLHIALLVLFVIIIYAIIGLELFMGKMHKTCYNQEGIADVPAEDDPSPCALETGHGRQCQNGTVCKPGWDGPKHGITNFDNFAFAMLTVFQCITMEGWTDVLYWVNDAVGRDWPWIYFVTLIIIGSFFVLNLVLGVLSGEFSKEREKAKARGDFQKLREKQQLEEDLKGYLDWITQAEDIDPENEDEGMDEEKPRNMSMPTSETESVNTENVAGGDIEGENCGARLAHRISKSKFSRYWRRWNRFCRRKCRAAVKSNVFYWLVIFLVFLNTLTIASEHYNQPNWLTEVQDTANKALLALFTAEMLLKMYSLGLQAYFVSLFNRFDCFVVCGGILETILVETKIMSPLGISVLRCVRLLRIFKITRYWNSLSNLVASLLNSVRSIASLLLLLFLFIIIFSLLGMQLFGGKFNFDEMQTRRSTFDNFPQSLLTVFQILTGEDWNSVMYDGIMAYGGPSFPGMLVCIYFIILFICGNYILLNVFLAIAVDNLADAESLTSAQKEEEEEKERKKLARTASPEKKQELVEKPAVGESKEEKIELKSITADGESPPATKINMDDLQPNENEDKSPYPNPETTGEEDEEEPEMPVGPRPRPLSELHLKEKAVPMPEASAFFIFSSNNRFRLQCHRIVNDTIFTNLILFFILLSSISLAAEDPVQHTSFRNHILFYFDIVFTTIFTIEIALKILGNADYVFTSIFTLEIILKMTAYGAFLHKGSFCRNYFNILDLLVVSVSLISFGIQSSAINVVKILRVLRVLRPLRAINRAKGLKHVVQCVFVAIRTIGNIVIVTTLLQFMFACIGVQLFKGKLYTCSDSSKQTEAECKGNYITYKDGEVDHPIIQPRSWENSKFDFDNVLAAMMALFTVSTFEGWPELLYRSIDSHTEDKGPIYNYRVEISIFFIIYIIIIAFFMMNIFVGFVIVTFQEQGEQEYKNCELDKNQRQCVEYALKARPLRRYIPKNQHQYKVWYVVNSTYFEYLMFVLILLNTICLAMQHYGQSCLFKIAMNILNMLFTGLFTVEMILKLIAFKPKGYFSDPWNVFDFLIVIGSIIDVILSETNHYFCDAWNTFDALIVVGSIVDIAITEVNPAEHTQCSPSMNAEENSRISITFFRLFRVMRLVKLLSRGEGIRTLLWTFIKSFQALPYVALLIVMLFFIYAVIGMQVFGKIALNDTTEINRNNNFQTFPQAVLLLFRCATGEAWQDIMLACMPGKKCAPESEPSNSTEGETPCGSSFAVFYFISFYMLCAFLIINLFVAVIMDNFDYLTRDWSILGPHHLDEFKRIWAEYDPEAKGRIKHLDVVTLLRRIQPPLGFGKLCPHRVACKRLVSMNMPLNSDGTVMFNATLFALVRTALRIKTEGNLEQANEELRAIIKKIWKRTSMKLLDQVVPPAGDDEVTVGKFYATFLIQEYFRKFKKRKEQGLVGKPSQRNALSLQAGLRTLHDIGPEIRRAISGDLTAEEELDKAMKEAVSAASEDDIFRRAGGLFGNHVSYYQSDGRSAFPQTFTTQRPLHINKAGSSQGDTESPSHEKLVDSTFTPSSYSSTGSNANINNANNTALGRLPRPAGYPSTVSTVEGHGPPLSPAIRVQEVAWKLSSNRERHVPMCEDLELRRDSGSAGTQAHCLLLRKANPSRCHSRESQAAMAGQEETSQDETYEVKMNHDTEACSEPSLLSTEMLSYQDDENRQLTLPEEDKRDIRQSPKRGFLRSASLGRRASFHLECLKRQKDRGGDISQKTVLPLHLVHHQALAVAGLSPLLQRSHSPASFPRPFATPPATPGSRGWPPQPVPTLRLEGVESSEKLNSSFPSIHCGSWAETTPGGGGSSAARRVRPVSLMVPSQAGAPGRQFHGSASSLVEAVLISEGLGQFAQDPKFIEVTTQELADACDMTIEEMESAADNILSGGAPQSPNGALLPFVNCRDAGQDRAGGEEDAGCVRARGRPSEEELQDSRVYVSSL
# Sequence (Q08289 whole entry partner): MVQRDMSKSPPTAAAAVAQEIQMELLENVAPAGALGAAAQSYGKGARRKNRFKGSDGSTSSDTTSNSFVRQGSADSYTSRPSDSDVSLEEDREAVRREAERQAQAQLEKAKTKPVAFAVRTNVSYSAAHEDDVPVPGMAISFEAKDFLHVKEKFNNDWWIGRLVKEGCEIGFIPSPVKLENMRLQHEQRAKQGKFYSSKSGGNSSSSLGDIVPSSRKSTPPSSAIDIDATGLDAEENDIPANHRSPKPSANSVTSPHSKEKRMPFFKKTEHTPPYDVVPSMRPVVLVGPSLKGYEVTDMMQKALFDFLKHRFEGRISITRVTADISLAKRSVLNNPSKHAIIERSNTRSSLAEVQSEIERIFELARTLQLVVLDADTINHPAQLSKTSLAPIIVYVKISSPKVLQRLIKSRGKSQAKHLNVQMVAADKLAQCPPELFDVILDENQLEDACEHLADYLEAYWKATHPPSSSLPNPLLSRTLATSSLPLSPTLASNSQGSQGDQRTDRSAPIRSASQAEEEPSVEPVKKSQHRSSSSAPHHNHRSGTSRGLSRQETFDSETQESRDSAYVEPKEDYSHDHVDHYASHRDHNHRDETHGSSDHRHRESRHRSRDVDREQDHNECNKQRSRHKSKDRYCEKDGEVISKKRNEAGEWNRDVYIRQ
# Sequence (P54289 25-956 partner limits assumed): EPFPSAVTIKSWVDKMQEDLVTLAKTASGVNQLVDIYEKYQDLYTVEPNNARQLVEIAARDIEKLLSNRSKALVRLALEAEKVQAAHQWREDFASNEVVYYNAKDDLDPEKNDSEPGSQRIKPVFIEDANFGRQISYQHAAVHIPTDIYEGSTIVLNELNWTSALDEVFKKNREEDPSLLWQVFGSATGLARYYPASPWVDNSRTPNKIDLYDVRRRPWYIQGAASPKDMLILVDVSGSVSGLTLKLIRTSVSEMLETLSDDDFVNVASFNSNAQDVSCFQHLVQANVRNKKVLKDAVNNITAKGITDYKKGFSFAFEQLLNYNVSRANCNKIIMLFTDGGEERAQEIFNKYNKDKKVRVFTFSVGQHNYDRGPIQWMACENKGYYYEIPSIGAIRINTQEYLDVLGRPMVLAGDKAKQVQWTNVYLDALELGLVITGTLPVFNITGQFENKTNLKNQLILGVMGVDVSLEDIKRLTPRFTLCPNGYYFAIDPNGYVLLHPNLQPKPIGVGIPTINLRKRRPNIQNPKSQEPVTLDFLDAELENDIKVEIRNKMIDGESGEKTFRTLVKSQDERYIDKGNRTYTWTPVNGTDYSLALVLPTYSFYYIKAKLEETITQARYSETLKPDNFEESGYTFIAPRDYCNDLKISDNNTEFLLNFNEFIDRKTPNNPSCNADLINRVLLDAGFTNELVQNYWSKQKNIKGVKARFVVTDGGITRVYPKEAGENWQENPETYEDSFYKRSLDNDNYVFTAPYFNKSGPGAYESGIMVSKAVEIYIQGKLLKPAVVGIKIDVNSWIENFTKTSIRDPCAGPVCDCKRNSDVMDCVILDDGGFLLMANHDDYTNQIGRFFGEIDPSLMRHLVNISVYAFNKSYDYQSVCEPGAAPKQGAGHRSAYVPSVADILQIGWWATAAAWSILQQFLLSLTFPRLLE
# Sequence (P54289 957-1103 partner limits assumed): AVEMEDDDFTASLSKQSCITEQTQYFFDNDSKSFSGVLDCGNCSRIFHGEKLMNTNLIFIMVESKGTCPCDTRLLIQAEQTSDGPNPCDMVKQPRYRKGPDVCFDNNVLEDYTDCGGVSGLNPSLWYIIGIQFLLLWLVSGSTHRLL
# protocol.text: cell-based
# protocol.conditions: Ion Channel Extended Protocol IC50 (nM), Period 3rd, Cav1.2, extended protocol, 3rd period
experimental.endpoint: IC50 (nM)
The answer is to be given in nM; state only the numeric part.

Asked: Fill in the blank: the reported IC50 of CCOc1cc(C)nc(N(CCOC)S(=O)(=O)c2ccc(NCc3c(F)cncc3F)nc2OC)n1 is ____.
Given back: 5930

Data credit: paper PMC10517971
